Answer each item with its documented GI50.
# System: SNB-75
# Measurement protocol: NCI tumour cell line growth inhibition, 48 h
Active and inactive are the calls of the source. Rule as the data show it: active = GI50 up to about 1.1 µM and inactive = higher.

Some compounds with known GI50 results, for comparison:
Compound	GI50
C=CCOc1ccc(C2c3c(n[nH]c3O)CC(C)(O)C2C(=O)OC)cc1OC (stereo not given)	> 100 µM (inactive)
CCOc1cccc2[s+]snc12	25.6 µM (inactive)
CC1=C(C(=O)NCc2ccccc2)C(c2ccccc2O)C(C(=O)NCc2ccccc2)=C(C)N1	23.6 µM (inactive)

Count: 2. Required value per item: GI50.
1. CCN(CC)CC[n+]1ccc2c(C)c3[nH]c4ccccc4c3c(C)c2c1
2. CN1Cc2ccccc2S(=O)(=O)n2cccc2C1=O

Result block:
1. 0.276 µM (active)
2. > 100 µM (inactive)

Count: 5. Required value per item: GI50.
1. CCn1cnnc1-c1nsc2ccccc12
2. CC(=O)Nc1ccc(C(=O)N2N=C(C)/C(=C/c3cccc(O)c3)C2=O)cc1
3. COc1cc2c(cc1OC)c1c(OC)c(OC)cc3c1c1c2sc(=S)n1CC3
4. NNC(=O)N/N=C1\C(=O)N(c2nccs2)C(=O)C(=O)C1c1nc2ccccc2s1 (stereo not given)
5. N#CCCN(CCC#N)c1ccc(C(=N/c2ccc(Cl)cc2)/N=N/c2ccccc2)cc1

Result block:
1: 0.369 µM (active); 2: > 100 µM (inactive); 3: 74.6 µM (inactive); 4: > 100 µM (inactive); 5: 59.4 µM (inactive)
